# experiment_description: 10-day repeat-dose toxicity and toxicokinetics study in dogs
# Type: in vivo, Beagle dog
# measurement_context: female, Beagle, dog, plasma, po; females, 200 mg/kg/day, after 10 days of dosing; read-out: Mean C2E2 Cmax
readout: Cmax (µg/mL)

# given_smiles, readout, units_label, measured
records = [
    ("CCOC(=O)CN(CCN(CCN(CC(=O)O)CC(=O)OCC)CC(=O)O)CC(=O)O", "Cmax", "µg/mL", 72),
]

---

# experiment_description: Precipitation / solubility study in pH 3.0 buffer
# Format: physicochemical
# measurement_context: Lot 050; solutions at this concentration precipitated over time; read-out: Solubility, initially determined

# given_smiles, units_label, solubility
records = [
    ("CCOC(=O)CN(CCN(CCN(CC(=O)O)CC(=O)OCC)CC(=O)O)CC(=O)O", "mg/mL", 100),
]

Hello, the source for this data is patent US9546129B2, in case you need it.
